B1: EEHEE_rd4_0003 (parent)
chain: KKVTINGVEIKFNNPEEAVKFALELAKRLNLRIEFHGDQIKIE

Variants of: B1
assay.notes: folding stability dG (cDNA display proteolysis); higher = more stable
condition.context: PBS, room temperature
property: folding stability dG (kcal/mol)
Answers are plain numbers, in kcal/mol.

Check out these entries, answers already filled in.
| entry.sequence | measured.value |
| --- | --- |
| KKVTINGNEIKFNNPEEAVKFALELAKRLNLRIEFHGDQIKIE [V8N] | 2 |
| KKVTINGVEIKFNNPEEAVKFALELAKRLNLRIEFHGDQIKIL [E43L] | 3.23 |
| KKVTINGVEIKINNPEEAVKFALELAKRLNLRIEFHGDQIKIE [F12I] | 1.9 |
| KKVTINGVEIKFNNPEEAVKTALELAKRLNLRIEFHGDQIKIE [F21T] | 1.56 |
| KKVTINGVEIKFNNPEEAVKFALELAKRLNLRIEFHGDQIKIP [E43P] | 1.83 |

Please give folding stability dG, item by item, for the list that follows.
1. KKVTINGVEIKFNNPEEAVKFALESAKRLNLRIEFHGDQIKIE [L25S]
2. KKVYINGVEIKFNNPEEAVKFALELAKRLNLRIEFHGDQIKIE [T4Y]
3. KKVTINGVEIKFNNPEEAVRFALELAKRLNLRIEFHGDQIKIE [K20R]
4. KKVTINGVEIKFNNPEEAVKFALELAKRLNLRIEFHGRQIKIE [D38R]
5. KKVTINGVEIVFNNPEEAVKFALELAKRLNLRIEFHGDQIKIE [K11V]
6. KKVTINGVEEKFNNPEEAVKFALELAKRLNLRIEFHGDQIKIE [I10E]
7. KKVTINGAEIKFNNPEEAVKFALELAKRLNLRIEFHGDQIKIE [V8A]

Output line:
[1.11, 3.11, 2.81, 2.01, 2.96, 1.36, 2.03]

Give folding stability dG for each listed item.
1. KKVTINGVEIKFNNPEEDVKFALELAKRLNLRIEFHGDQIKIE [A18D]
2. KKVTINGVEIKFNNPEEAVKFALELAKRLNLRVEFHGDQIKIE [I33V]

Output line:
1.41
2.67

Give measured folding stability dG for every item shown.
1. KKVTINGVEIKFNNPEEAVKMALELAKRLNLRIEFHGDQIKIE [F21M]
2. KKVTINGVEIKFNNPEEAVKSALELAKRLNLRIEFHGDQIKIE [F21S]
3. KKVTIFGVEIKFNNPEEAVKFALELAKRLNLRIEFHGDQIKIE [N6F]
4. KSVTINGVEIKFNNPEEAVKFALELAKRLNLRIEFHGDQIKIE [K2S]
5. KKVTINGVEIKFNNPEEAVKFALELAKRLWLRIEFHGDQIKIE [N30W]
6. KKVTINGVEIKVNNPEEAVKFALELAKRLNLRIEFHGDQIKIE [F12V]
7. KEVTINGVEIKFNNPEEAVKFALELAKRLNLRIEFHGDQIKIE [K2E]

Output line:
1.88
1.47
3.23
2.92
2.72
1.86
2.06

Input line: For the variant KKVTINGVEIKFNNPEEAHKFALELAKRLNLRIEFHGDQIKIE [V19H] , give its reported folding stability dG.
Output line: 2.21
